Target: UniProtKB Q9UPE1
Sequence (Q9UPE1 whole entry, looked up): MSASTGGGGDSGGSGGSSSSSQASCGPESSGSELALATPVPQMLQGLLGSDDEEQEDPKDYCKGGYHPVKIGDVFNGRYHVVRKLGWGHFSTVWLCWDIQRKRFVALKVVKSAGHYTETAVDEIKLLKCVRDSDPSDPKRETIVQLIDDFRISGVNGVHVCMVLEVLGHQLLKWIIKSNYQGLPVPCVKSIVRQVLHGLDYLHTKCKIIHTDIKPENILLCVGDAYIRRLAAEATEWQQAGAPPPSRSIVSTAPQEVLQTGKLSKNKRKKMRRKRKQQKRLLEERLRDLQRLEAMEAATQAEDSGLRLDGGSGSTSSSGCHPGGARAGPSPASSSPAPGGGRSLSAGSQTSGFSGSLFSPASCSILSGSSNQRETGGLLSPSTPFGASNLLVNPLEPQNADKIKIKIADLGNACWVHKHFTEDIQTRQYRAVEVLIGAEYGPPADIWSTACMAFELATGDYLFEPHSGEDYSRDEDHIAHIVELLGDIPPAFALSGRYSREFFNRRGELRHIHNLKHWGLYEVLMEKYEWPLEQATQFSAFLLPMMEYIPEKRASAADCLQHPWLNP
Assay: KINOMEscan competition binding
Conditions: compound 10.0 µM
// assign satisfied if kinase still bound, per cent of control falls strictly below 70%, else not satisfied (ties count as not satisfied)

> print(dat)
                                 item.smiles         tested.on  category.label
 1  NC(=O)Nc1cc(-c2cccc(F)c2)sc1C(=O)N[C@@H]1CCCNC1  UniProtKB Q9UPE1       satisfied
 2  CNC(=O)c1cc(Oc2ccc(NC(=O)Nc3ccc(Cl)c(C(F)(F)F)c3)cc2)ccn1  UniProtKB Q9UPE1   not satisfied
 3  C[C@@H](Oc1cc(-c2cnn(C3CCNCC3)c2)cnc1N)c1c(Cl)ccc(F)c1Cl  UniProtKB Q9UPE1       satisfied
 4  CNC(=O)c1ccc(Nc2cc(Nc3ccccc3S(=O)(=O)C(C)C)c3cc[nH]c3n2)nc1  UniProtKB Q9UPE1       satisfied
 5  COc1cc2ncn(-c3cc(OCc4ccccc4C(F)(F)F)c(C(N)=O)s3)c2cc1OC  UniProtKB Q9UPE1       satisfied
 6  CCN1CCN(C(=O)Cc2ccc(Nc3ncc(F)c(Nc4ccc(C(=O)Nc5ccccc5Cl)cc4)n3)cc2)CC1  UniProtKB Q9UPE1       satisfied
 7  Cc1n[nH]c2ccc(-c3cncc(OC[C@@H](N)Cc4c[nH]c5ccccc45)c3)cc12  UniProtKB Q9UPE1       satisfied
 8  COc1cc(N2CCN(C)CC2)ccc1Nc1ncc2c(n1)N(C)c1ccccc1C(=O)N2C  UniProtKB Q9UPE1   not satisfied
 9  O=C(Nc1cccc(Nc2ncc(Br)c(NCCc3cnc[nH]3)n2)c1)N1CCCC1  UniProtKB Q9UPE1       satisfied
10  COc1ccc(N(C(=O)Oc2c(C)cccc2C)c2ccnc(Nc3ccc(N4CCN(C)CC4)cc3)n2)c(OC)c1  UniProtKB Q9UPE1       satisfied
11  COc1cc2ncnc(-n3nc(-c4ccccn4)nc3N)c2cc1OC  UniProtKB Q9UPE1       satisfied
12  O=C1NC(=O)/C(=C/c2ccc3nccc(-c4ccncc4)c3c2)S1  UniProtKB Q9UPE1       satisfied
13  C=CC(=O)Nc1ccc(CN(C(=O)Nc2c(Cl)c(OC)cc(OC)c2Cl)c2cc(Nc3ccc(N4CCN(C)CC4)cc3)ncn2)cc1  UniProtKB Q9UPE1   not satisfied
14  CCN(CC)CCCCNc1ncc2c(n1)N(C)C(=O)N(c1c(Cl)c(OC)cc(OC)c1Cl)C2  UniProtKB Q9UPE1   not satisfied
15  COCC(=O)NC/C=C/c1ccc2ncnc(Nc3ccc(Oc4ccc(C)nc4)c(C)c3)c2c1  UniProtKB Q9UPE1   not satisfied
16  CS(=O)(=O)N1CCN(Cc2cc3nc(-c4cccc5[nH]ncc45)nc(N4CCOCC4)c3s2)CC1  UniProtKB Q9UPE1   not satisfied

----------
Biological target: PIK3CG (human)
Assay: KINOMEscan competition binding
Conditions: compound 10.0 µM
kinase still bound, per cent of control strictly under 60% means class 1; at 60% or over means class 0.

> print(dat)
                                 item.smiles       tested.on  category.label
 1  N#CCNC(=O)c1ccc(-c2ccnc(Nc3ccc(N4CCOCC4)cc3)n2)cc1  PIK3CG (human)         class 1
 2  C=CC(=O)Nc1cc(-n2c(=O)ccc3cnc4ccc(-c5cn[nH]c5)cc4c32)ccc1C  PIK3CG (human)         class 1
 3  CCN(CC)CCCCNc1ncc2c(n1)N(C)C(=O)N(c1c(Cl)c(OC)cc(OC)c1Cl)C2  PIK3CG (human)         class 0
 4  COc1cc(N2CCN(C)CC2)ccc1Nc1ncc2c(n1)N(C)c1ccccc1C(=O)N2C  PIK3CG (human)         class 1
 5  O=c1cc(N2CCOCC2)oc2c(-c3cccc4c3sc3ccccc34)cccc12  PIK3CG (human)         class 1
 6  Cc1n[nH]c2ccc(-c3cncc(OC[C@@H](N)Cc4c[nH]c5ccccc45)c3)cc12  PIK3CG (human)         class 0
 7  C[C@@H](Oc1cc(-c2cnn(C3CCNCC3)c2)cnc1N)c1c(Cl)ccc(F)c1Cl  PIK3CG (human)         class 0
 8  COc1cc2ncnc(-n3nc(-c4ccccn4)nc3N)c2cc1OC  PIK3CG (human)         class 1
 9  COCC(=O)NC/C=C/c1ccc2ncnc(Nc3ccc(Oc4ccc(C)nc4)c(C)c3)c2c1  PIK3CG (human)         class 0
10  O=C(Nc1cccc(Nc2ncc(Br)c(NCCc3cnc[nH]3)n2)c1)N1CCCC1  PIK3CG (human)         class 1
